Hello, the source for this data is patent US11020399B2, in case you need it.

Here the recorded inhibition at 0.3 µM is given for each entry.
- test.system: PI3kδ (Homo sapiens, UniProt O00329)
- Sequence (O00329 whole entry): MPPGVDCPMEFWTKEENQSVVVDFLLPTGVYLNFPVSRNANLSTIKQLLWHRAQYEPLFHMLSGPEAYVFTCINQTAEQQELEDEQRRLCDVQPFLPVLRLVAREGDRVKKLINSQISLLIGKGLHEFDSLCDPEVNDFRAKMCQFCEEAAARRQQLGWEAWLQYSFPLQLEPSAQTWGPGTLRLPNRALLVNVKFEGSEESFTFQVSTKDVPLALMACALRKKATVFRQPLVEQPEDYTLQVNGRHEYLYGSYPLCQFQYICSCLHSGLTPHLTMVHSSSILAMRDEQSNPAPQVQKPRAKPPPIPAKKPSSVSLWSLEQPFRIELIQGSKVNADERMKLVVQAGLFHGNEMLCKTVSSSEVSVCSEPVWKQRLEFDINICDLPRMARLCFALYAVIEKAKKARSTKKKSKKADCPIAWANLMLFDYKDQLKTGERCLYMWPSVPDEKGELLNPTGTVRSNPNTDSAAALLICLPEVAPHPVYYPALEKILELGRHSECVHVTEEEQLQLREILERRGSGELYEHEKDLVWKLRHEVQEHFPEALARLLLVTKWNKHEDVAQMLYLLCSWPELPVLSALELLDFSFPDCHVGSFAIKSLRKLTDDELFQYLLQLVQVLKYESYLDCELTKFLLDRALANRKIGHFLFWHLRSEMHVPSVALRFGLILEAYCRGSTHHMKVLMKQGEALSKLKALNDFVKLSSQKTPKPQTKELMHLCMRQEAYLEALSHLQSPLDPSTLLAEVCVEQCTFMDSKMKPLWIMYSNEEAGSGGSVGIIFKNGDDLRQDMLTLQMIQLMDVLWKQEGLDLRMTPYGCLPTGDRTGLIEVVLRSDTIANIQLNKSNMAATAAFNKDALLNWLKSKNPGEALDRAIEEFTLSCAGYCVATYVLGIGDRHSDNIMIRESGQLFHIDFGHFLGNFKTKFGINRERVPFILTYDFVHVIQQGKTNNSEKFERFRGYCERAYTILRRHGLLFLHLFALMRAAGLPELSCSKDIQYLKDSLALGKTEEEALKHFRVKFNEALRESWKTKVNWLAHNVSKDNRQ
- Sequence (P27986 whole entry partner): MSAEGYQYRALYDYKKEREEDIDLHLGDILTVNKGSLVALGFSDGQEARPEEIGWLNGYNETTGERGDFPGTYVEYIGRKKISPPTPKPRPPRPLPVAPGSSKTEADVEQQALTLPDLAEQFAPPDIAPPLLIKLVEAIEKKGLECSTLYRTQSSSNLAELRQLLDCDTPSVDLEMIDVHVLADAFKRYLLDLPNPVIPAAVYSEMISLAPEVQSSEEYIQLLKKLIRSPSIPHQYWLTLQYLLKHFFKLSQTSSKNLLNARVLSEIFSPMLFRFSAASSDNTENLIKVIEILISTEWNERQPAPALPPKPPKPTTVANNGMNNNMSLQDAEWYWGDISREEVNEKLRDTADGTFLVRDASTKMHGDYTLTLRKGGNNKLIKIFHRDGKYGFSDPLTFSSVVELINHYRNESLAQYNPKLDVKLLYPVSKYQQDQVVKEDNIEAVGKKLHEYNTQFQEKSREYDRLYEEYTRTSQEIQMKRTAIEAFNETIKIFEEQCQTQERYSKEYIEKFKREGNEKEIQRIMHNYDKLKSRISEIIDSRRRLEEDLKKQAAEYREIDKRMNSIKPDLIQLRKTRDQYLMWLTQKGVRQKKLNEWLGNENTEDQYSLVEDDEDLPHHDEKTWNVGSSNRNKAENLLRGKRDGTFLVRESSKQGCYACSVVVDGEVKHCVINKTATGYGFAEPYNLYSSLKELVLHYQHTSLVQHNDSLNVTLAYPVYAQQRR
- method.notes: Fluorescent (HTRF) determination of PI3 kinase enzyme activity, PI3Kδ
- Format: biochemical
- experimental.setup: 300 nM (Examples 1-59)

Worked examples follow.
CC(c1oc2cccc(F)c2c(=O)c1-c1cccc(F)c1)n1nc(-c2ccc(OC3CCOCC3)c(F)c2)c2c(N)ncnc21 (stereo not shown) : 50 to 75%
CC(c1oc2cccc(F)c2c(=O)c1-c1cccc(F)c1)n1nc(-c2ccc(NCCO)c(F)c2)c2c(N)ncnc21 (stereo not shown) : 75 to 100%
CC(C)c1n[nH]c2cc(-c3nn(C(C)c4oc5cccc(F)c5c(=O)c4-c4cccc(F)c4)c4ncnc(N)c34)ccc12 (stereo not shown) : 75 to 100%
CC(c1oc2cccc(F)c2c(=O)c1-c1cccc(F)c1)n1nc(-c2ccc(C3=NCCCO3)cc2)c2c(N)ncnc21 (stereo not shown) : 25 to 50%
CC(c1oc2cccc(F)c2c(=O)c1-c1cccc(F)c1)n1ncc2c(N)ncnc21 (stereo not shown) : 75 to 100%

-- ask What does the data say about its inhibition at 0.3 µM? Entry: CC(c1oc2cccc(F)c2c(=O)c1-c1ccc(F)cc1)n1ncc2c(N)ncnc21 (stereo not shown)
-- reply 25 to 50%

-- ask Input CC(C)C(=O)Nc1ccc(-c2nn(C(C)c3oc4cccc(F)c4c(=O)c3-c3cccc(F)c3)c3ncnc(N)c23)cc1 (stereo not shown)
-- reply 50 to 75%
